- studySystem: human FN3K (Homo sapiens, UniProt Q9H479)
- Construct: expressed in transfected cells; host or cells: HEK293, transient, hFN3K/pcDNA3.2-DEST; cytoplasmic fraction (lysate supernatant) used
- Sequence (Q9H479 whole entry): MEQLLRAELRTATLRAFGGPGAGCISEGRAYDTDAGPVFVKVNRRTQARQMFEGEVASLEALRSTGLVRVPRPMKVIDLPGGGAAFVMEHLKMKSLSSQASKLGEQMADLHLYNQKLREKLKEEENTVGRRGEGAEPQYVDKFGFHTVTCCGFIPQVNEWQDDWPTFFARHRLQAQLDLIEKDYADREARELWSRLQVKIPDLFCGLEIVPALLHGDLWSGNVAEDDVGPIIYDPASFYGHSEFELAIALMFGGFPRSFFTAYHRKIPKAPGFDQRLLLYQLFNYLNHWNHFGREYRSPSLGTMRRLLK
- methodSummary: DMF inhibition of compound 1 phosphorylating activity, hydrophobic interaction column active fraction (Example 6)
- Type: biochemical
- statedConditions: active fraction of the hydrophobic interaction column (second purification stage, Example 4)
pIC50: −log10 of the molar value.
resultType: pIC50

- compound: "O=C(CN1CCOCC1)[C@@H](O)[C@H](O)[C@H](O)CO [DMF, 1-deoxy-1-morpholinofructose]"
  resultType: "pIC50"
  valueReported: "~6.00"
